Recorded measurements of Population Mitotic Cells (%), one per entry
Tested on: U2OS
Experiment: Multiplex assay against U2OS
Assay type: toxicity, cell-based
Conditions: human, 12 h, 1 µM, compound concentration 1 uM, replicate 2
assay.readout: Population Mitotic Cells (%)

| molecule | system.tested | assay.readout | reported.value |
| --- | --- | --- | --- |
| C[C@]12CC[C@@H]3c4ccc(O)cc4CC[C@H]3[C@@H]1CC[C@@H]2O [ESTRADIOL] | U2OS | Population Mitotic Cells (%) | 50 |
| O=c1cc(N2CCOCC2)oc2c(-c3cccc4c3sc3ccccc34)cccc12 | U2OS | Population Mitotic Cells (%) | 0 |
| O=C(c1cc2c(cc1F)OC(c1ccc(F)cc1)(c1ccc(Cl)cc1Cl)O2)N1CCOCC1 (centres undefined) | U2OS | Population Mitotic Cells (%) | 50 |
| Cc1ccccc1C(c1ccccc1C)N1C2CCC1CC(O)(c1ccccc1)C2 (centres undefined) | U2OS | Population Mitotic Cells (%) | 50 |
| C=CC(=O)Nc1cccc(Oc2nc(Nc3ccc(N4CCN(C)CC4)cc3OC)ncc2Cl)c1 | U2OS | Population Mitotic Cells (%) | 26 |
| Cl.O=C(O)c1cc(-c2ccc(C3CCNCC3)cc2)c2ccc(-c3ccc(C(F)(F)F)cc3)cc2c1 | U2OS | Population Mitotic Cells (%) | 50 |
| CCOC(=O)Nc1cc(-c2ccc(C)c(NS(C)(=O)=O)c2)nn2c(C)nnc12 | U2OS | Population Mitotic Cells (%) | 0 |
| COC(=O)C1=C(C)NC(C)=C(C(=O)OCCCN2CCC(c3ccccc3)(c3ccccc3)CC2)[C@H]1c1cccc([N+](=O)[O-])c1 [NIGULDIPINE] | U2OS | Population Mitotic Cells (%) | 8 |
| CN1CCN(Cc2ccc(Nc3ncc(Cl)c(Nc4ccccc4S(=O)(=O)N(C)C)n3)cc2)CC1 [DUBERMATINIB] | U2OS | Population Mitotic Cells (%) | 0 |
| CCCSc1nc(N[C@@H]2C[C@H]2c2ccc(F)c(F)c2)c2nnn([C@@H]3C[C@H](OCCO)[C@@H](O)[C@H]3O)c2n1 [TICAGRELOR] | U2OS | Population Mitotic Cells (%) | 33 |
| CC(C)NC(=O)N1CC[C@H](NC2=Nc3cc(F)ccc3N(CC(F)F)c3ccc(Cl)cc32)C1 | U2OS | Population Mitotic Cells (%) | 66 |
| Cc1c[nH]c2nccc(Oc3c(F)cc(Nc4cc(Cl)nc(N)n4)cc3F)c12 [BAY-549] | U2OS | Population Mitotic Cells (%) | 55 |
| CC(C)Oc1ccccc1C(=O)Nc1ccccc1C(=O)Nc1cccc(S(=O)(=O)C(F)(F)F)c1 | U2OS | Population Mitotic Cells (%) | 66 |
| CCc1ccc(OCc2ccccc2C(=O)Nc2ccc3nc(C)cc(N)c3c2)cc1.Cl | U2OS | Population Mitotic Cells (%) | 28 |
| CCc1nn(CCCN2CCN(c3cccc(Cl)c3)CC2)c(=O)n1CCOc1ccccc1.Cl [NEFAZODONE HYDROCHLORIDE] | U2OS | Population Mitotic Cells (%) | 100 |
| C=CC(=O)Nc1ccc2[nH]c(=O)n(C3CCN(Cc4ccc(-c5nc6cc[nH]c(=O)c6cc5-c5ccccc5)cc4)CC3)c2c1 [Borussertib] | U2OS | Population Mitotic Cells (%) | 71 |
| Cc1cccc(CN2CCN(C(c3ccccc3)c3ccc(Cl)cc3)CC2)c1.Cl.Cl (centres undefined) | U2OS | Population Mitotic Cells (%) | 100 |
| Cc1nc(N2CC[C@H](O)C2)ncc1-c1cc(C(F)(F)F)cc2[nH]ncc12 | U2OS | Population Mitotic Cells (%) | 85 |
| CC(C)c1noc(N2CCC(COc3ccc(-c4ccc(S(C)(=O)=O)cc4)nc3)CC2)n1 [GSK-1292263] | U2OS | Population Mitotic Cells (%) | 50 |
| COc1ccc(-c2ccc3ncc4c(c3c2)n(-c2ccc(N3CCNCC3)c(C(F)(F)F)c2)c(=O)n4C)cn1.O=C(O)/C=C\C(=O)O [BGT-226] | U2OS | Population Mitotic Cells (%) | 18 |
| CC1=C(C(=O)Nc2cc3cn[nH]c3cc2F)C(c2ccc(C(F)(F)F)cc2)CC(=O)N1 (centres undefined) | U2OS | Population Mitotic Cells (%) | 50 |
| CC(C)OC(=O)N1CCC(Oc2ncnc3c2cnn3-c2ccc(S(C)(=O)=O)cc2F)CC1 | U2OS | Population Mitotic Cells (%) | 66 |
| COc1ccccc1CN[C@H]1C2CCN(CC2)[C@H]1C(c1ccccc1)c1ccccc1 [CP-96345] | U2OS | Population Mitotic Cells (%) | 33 |
| CNC(=O)Nc1ccc2c(c1)[C@@]1(CC2)OC(=O)N(CC(=O)N(Cc2ccc(F)cc2)[C@@H](C)C(F)(F)F)C1=O [A-486] | U2OS | Population Mitotic Cells (%) | 25 |
